assay.comment: activity coefficient (dimensionless); of the first substance listed, at infinite dilution; xn = mol fraction of the nth substance listed
test.conditions: 354.65 K; 101 kPa; Liquid; Chromatography; x1 = 0
Label rule met when activity coefficient is strictly below 1; otherwise label rule not met.

Example entries begin here.
compound	class.name
C1COCCO1 [1,4-dioxane] + CCCCCC[n+]1ccn(C)c1.FC(F)(F)C(F)(F)[P-](F)(F)(F)(C(F)(F)C(F)(F)F)C(F)(F)C(F)(F)F	rule met
ClC(Cl)Cl [trichloromethane] + CCCCCC[n+]1ccn(C)c1.FC(F)(F)C(F)(F)[P-](F)(F)(F)(C(F)(F)C(F)(F)F)C(F)(F)C(F)(F)F	rule not met
C#CCCCC [1-hexyne] + CCCCCC[n+]1ccn(C)c1.FC(F)(F)C(F)(F)[P-](F)(F)(F)(C(F)(F)C(F)(F)F)C(F)(F)C(F)(F)F	rule not met
CCCCCCCC [octane] + CCCCCC[n+]1ccn(C)c1.FC(F)(F)C(F)(F)[P-](F)(F)(F)(C(F)(F)C(F)(F)F)C(F)(F)C(F)(F)F	rule not met
c1ccccc1 [benzene] + CCCCCC[n+]1ccn(C)c1.FC(F)(F)C(F)(F)[P-](F)(F)(F)(C(F)(F)C(F)(F)F)C(F)(F)C(F)(F)F	rule met

input: For C1CCCCCC1 [cycloheptane] + CCCCCC[n+]1ccn(C)c1.FC(F)(F)C(F)(F)[P-](F)(F)(F)(C(F)(F)C(F)(F)F)C(F)(F)C(F)(F)F , is the recorded activity coefficient below the cut-off of 1?
output: rule not met

input: Lab note: activity coefficient threshold 1. Does this compound come in strictly under it? C[N+](=O)[O-] [nitromethane] + CCCCCC[n+]1ccn(C)c1.FC(F)(F)C(F)(F)[P-](F)(F)(F)(C(F)(F)C(F)(F)F)C(F)(F)C(F)(F)F
output: rule met

input: Lab note: activity coefficient threshold 1. Does this compound come in strictly under it? CC1CCCCC1 [methylcyclohexane] + CCCCCC[n+]1ccn(C)c1.FC(F)(F)C(F)(F)[P-](F)(F)(F)(C(F)(F)C(F)(F)F)C(F)(F)C(F)(F)F
output: rule not met

====

assay.comment: activity coefficient (dimensionless); of the first substance listed, at infinite dilution; xn = mol fraction of the nth substance listed
test.conditions: 354.65 K; 101 kPa; Liquid; Chromatography; x1 = 0
Entries and their measured activity coefficient follow.
Write no unit; give the number alone.

Look over these answered cases.
molecule	activity coefficient
CCCCCC [hexane] + CCCCCC[n+]1ccn(C)c1.FC(F)(F)C(F)(F)[P-](F)(F)(F)(C(F)(F)C(F)(F)F)C(F)(F)C(F)(F)F	4.41
CO [methanol] + CCCCCC[n+]1ccn(C)c1.FC(F)(F)C(F)(F)[P-](F)(F)(F)(C(F)(F)C(F)(F)F)C(F)(F)C(F)(F)F	1.58
CCCCCCCCCCCC [dodecane] + CCCCCC[n+]1ccn(C)c1.FC(F)(F)C(F)(F)[P-](F)(F)(F)(C(F)(F)C(F)(F)F)C(F)(F)C(F)(F)F	25.7
CCO [ethanol] + CCCCCC[n+]1ccn(C)c1.FC(F)(F)C(F)(F)[P-](F)(F)(F)(C(F)(F)C(F)(F)F)C(F)(F)C(F)(F)F	1.31
CCC[N+](=O)[O-] [1-nitropropane] + CCCCCC[n+]1ccn(C)c1.FC(F)(F)C(F)(F)[P-](F)(F)(F)(C(F)(F)C(F)(F)F)C(F)(F)C(F)(F)F	0.436

# input for lookup
input: Please give the documented activity coefficient of C=O [methanal] + CCCCCC[n+]1ccn(C)c1.FC(F)(F)C(F)(F)[P-](F)(F)(F)(C(F)(F)C(F)(F)F)C(F)(F)C(F)(F)F
output: 0.146

====

# key: entry, value: activity coefficient
assay.comment: activity coefficient (dimensionless); of the first substance listed, at infinite dilution; xn = mol fraction of the nth substance listed
test.conditions: 312.8 K; 101 kPa; Liquid; Chromatography; x1 = 0
Give the figure only, with no unit attached.

input: Supply reported activity coefficient belonging to this compound: C1CCCCC1 [cyclohexane] + CCCCCC[n+]1ccn(C)c1.FC(F)(F)C(F)(F)[P-](F)(F)(F)(C(F)(F)C(F)(F)F)C(F)(F)C(F)(F)F
output: 4.78

input: Please report activity coefficient for the following compound: CCCCCCCCCC [decane] + CCCCCC[n+]1ccn(C)c1.FC(F)(F)C(F)(F)[P-](F)(F)(F)(C(F)(F)C(F)(F)F)C(F)(F)C(F)(F)F
output: 22.7

input: // fetch activity coefficient given entry CCO [ethanol] + CCCCCC[n+]1ccn(C)c1.FC(F)(F)C(F)(F)[P-](F)(F)(F)(C(F)(F)C(F)(F)F)C(F)(F)C(F)(F)F
output: 2.1

input: Specify measured activity coefficient for CC#N [acetonitrile] + CCCCCC[n+]1ccn(C)c1.FC(F)(F)C(F)(F)[P-](F)(F)(F)(C(F)(F)C(F)(F)F)C(F)(F)C(F)(F)F .
output: 0.295

input: State its activity coefficient for this compound: CCCCCCCCCCC [undecane] + CCCCCC[n+]1ccn(C)c1.FC(F)(F)C(F)(F)[P-](F)(F)(F)(C(F)(F)C(F)(F)F)C(F)(F)C(F)(F)F
output: 31

input: Identify measured activity coefficient associated with OCC(F)(F)F [2,2,2-trifluoroethanol] + CCCCCC[n+]1ccn(C)c1.FC(F)(F)C(F)(F)[P-](F)(F)(F)(C(F)(F)C(F)(F)F)C(F)(F)C(F)(F)F
output: 0.987

input: # return recorded activity coefficient for entry CCC(C)=O [butanone] + CCCCCC[n+]1ccn(C)c1.FC(F)(F)C(F)(F)[P-](F)(F)(F)(C(F)(F)C(F)(F)F)C(F)(F)C(F)(F)F
output: 0.204

input: For the compound CC(C)CC(C)(C)C [2,2,4-trimethylpentane] + CCCCCC[n+]1ccn(C)c1.FC(F)(F)C(F)(F)[P-](F)(F)(F)(C(F)(F)C(F)(F)F)C(F)(F)C(F)(F)F , report activity coefficient.
output: 7.98

input: State its activity coefficient for this compound: Cc1cccc(C)c1 [1,3-dimethylbenzene] + CCCCCC[n+]1ccn(C)c1.FC(F)(F)C(F)(F)[P-](F)(F)(F)(C(F)(F)C(F)(F)F)C(F)(F)C(F)(F)F
output: 0.939

input: Query activity coefficient for Cc1ccccc1 [toluene] + CCCCCC[n+]1ccn(C)c1.FC(F)(F)C(F)(F)[P-](F)(F)(F)(C(F)(F)C(F)(F)F)C(F)(F)C(F)(F)F
output: 0.674

input: Give the value of activity coefficient reported for the following: CC(C)CO [2-methyl-1-propanol] + CCCCCC[n+]1ccn(C)c1.FC(F)(F)C(F)(F)[P-](F)(F)(F)(C(F)(F)C(F)(F)F)C(F)(F)C(F)(F)F
output: 2.77

input: Report measured activity coefficient; entry is Cc1ccccc1C [1,2-dimethylbenzene] + CCCCCC[n+]1ccn(C)c1.FC(F)(F)C(F)(F)[P-](F)(F)(F)(C(F)(F)C(F)(F)F)C(F)(F)C(F)(F)F
output: 0.888

====

assay.comment: activity coefficient (dimensionless); of the first substance listed, at infinite dilution; xn = mol fraction of the nth substance listed
test.conditions: 343.15 K; 101 kPa; Liquid; Chromatography; x1 = 0
observation.type: activity coefficient
Could you respond with only the numeric value?

Below: 3 compounds and their reported activity coefficient.
compound	activity coefficient
Cc1ccc(C)cc1 [1,4-dimethylbenzene] + CCCCCCCCCCn1cc[n+](CCCCCCCCCC)c1C.O=S(=O)([N-]S(=O)(=O)C(F)(F)F)C(F)(F)F	0.657
CCC(C)CC [3-methylpentane] + CCCCCCCCCCn1cc[n+](CCCCCCCCCC)c1C.O=S(=O)([N-]S(=O)(=O)C(F)(F)F)C(F)(F)F	1.63
CCC(=O)CC [pentan-3-one] + CCCCCCCCCCn1cc[n+](CCCCCCCCCC)c1C.O=S(=O)([N-]S(=O)(=O)C(F)(F)F)C(F)(F)F	0.386

Moving on to the next compound.
input: Respond only with activity coefficient recorded for C[N+](=O)[O-] [nitromethane] + CCCCCCCCCCn1cc[n+](CCCCCCCCCC)c1C.O=S(=O)([N-]S(=O)(=O)C(F)(F)F)C(F)(F)F
output: 0.536

====

assay.comment: activity coefficient (dimensionless); of the first substance listed, at infinite dilution; xn = mol fraction of the nth substance listed
test.conditions: 312.55 K; 101 kPa; Liquid; Chromatography; x1 = 0
activity coefficient by entry:
Lab note: record just the number, no unit beside it.

Consider the following illustrative entries.
molecule	measured
CCC=O [propanal] + CCn1cc[n+](C)c1.CS(=O)(=O)[O-]	2.76
CCCCCCCCCCCCCC [tetradecane] + CCn1cc[n+](C)c1.CS(=O)(=O)[O-]	4070

input: Answer with the recorded activity coefficient for the molecule listed here: ClCCl [dichloromethane] + CCn1cc[n+](C)c1.CS(=O)(=O)[O-]
output: 0.471

input: Recall and state the measured activity coefficient for CCCCCCCCCCCCC [tridecane] + CCn1cc[n+](C)c1.CS(=O)(=O)[O-] .
output: 3380

input: Output measured activity coefficient for this item: CCCO [propan-1-ol] + CCn1cc[n+](C)c1.CS(=O)(=O)[O-]
output: 0.742

input: Report activity coefficient for CCC(=O)CC [pentan-3-one] + CCn1cc[n+](C)c1.CS(=O)(=O)[O-]
output: 7.58

input: Please list activity coefficient recorded for the molecule CCCC(C)=O [pentan-2-one] + CCn1cc[n+](C)c1.CS(=O)(=O)[O-]
output: 7.79

input: Respond only with activity coefficient recorded for CCC[N+](=O)[O-] [1-nitropropane] + CCn1cc[n+](C)c1.CS(=O)(=O)[O-]
output: 4.19

input: Given C1COCCO1 [1,4-dioxane] + CCn1cc[n+](C)c1.CS(=O)(=O)[O-] , respond with its activity coefficient.
output: 2.67
